B1: TPRG1 (parent)
chain: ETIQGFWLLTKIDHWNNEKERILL

- Variants of: B1
- test_details: protein stability index of a GFP-peptide fusion (GPS, HEK-293T) (PSI 1-6); higher = more stable;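 note: lentivirally expressed fusions sorted by FACS into six bins by GFP to DsRed ratio, PSI derived from sequencing read proportions per bin multiplied by bin number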
- experimental_parameters: c terminus: a fixed tail appended
value_type: protein stability index
One number for each entry.

{"sequence_chain": "ETIQGFGLLTKIDHWNNEKERILL [W7G]", "protein stability index": 2.31}
{"sequence_chain": "ETIQGFWLLTKIDIWNNEKERILL [H14I]", "protein stability index": 2.49}
{"sequence_chain": "ETIQGFWLLTKIDHWNNEKERFLL [I22F]", "protein stability index": 3.5}
{"sequence_chain": "ETIQGFWLLTKIDHWNNEKERIEL [L23E]", "protein stability index": 2.38}

Respectfully, I request protein stability index for each entry included below.
1. ETIQGFWLLTKIDHHNNEKERILL [W15H]
2. ETIQGFWLLTKIDHWNNENERILL [K19N]
3. ETIQGFWLLTKRDHWNNEKERILL [I12R]
4. ETIQGPWLLTKIDHWNNEKERILL [F6P]
5. ETIQGFWDLTKIDHWNNEKERILL [L8D]
6. ETIQHFWLLTKIDHWNNEKERILL [G5H]
7. ETIQGFWLLTGIDHWNNEKERILL [K11G]

Completion:
[2.16, 4.67, 1.75, 1.74, 2.34, 2.36, 2.08]
